The measured values listed here are drawn from patent US20240360178A1.

Readings of pIC50 for the listed compounds
molecular target: human PD-1 (Jurkat-PD-1 cells) / PE-labeled human PD-L1-Ig (Homo sapiens, UniProt Q15116); construct: expressed in transfected cells; host or cells: Jurkat cell line over-expressing human PD-1; test: Jurkat-PD-1 Cell Binding High-Content Screening Assay (CBA); Jurkat hPD1-PDL1 assay; details: Jurkat cell line over-expressing human PD-1; PE-labeled PD-L1-Ig 20 nM final; compound incubated 2 hours at 37° C.; read-out: Jurkat HPD1-PDL1 IC50
Sequence (Q15116 25-288): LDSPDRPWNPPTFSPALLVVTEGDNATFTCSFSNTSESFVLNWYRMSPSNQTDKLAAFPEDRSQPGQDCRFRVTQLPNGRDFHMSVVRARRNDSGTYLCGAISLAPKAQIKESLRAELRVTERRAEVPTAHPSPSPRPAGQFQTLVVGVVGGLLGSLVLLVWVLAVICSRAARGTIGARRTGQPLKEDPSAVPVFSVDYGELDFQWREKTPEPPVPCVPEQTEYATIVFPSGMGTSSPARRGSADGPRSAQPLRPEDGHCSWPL
pIC50: −log10 of the molar value. Positions of bridges follow the written chain, without caps; N, C: chain ends. Non-standard residues stand in square brackets, D forms with d. Residues, ends and D or L forms follow the SMILES beside them. Bip = N[C@@H](Cc1ccc(-c2ccccc2)cc1)C(=O)O; NMeF = CN[C@@H](Cc1ccccc1)C(=O)O; NMeA = CN[C@@H](C)C(=O)O; Dab = NCC[C@H](N)C(=O)O
reportedEndpoint: pIC50

CC(C)C[C@@H]1NC(=O)[C@H](Cc2c[nH]c3ccccc23)NC(=O)[C@H](CC(=O)O)NC(=O)[C@H](Cc2ccc(O)cc2)NC(=O)[C@H](Cc2ccccc2)NC(=O)CSC[C@@H](C(=O)N[C@@H](C)C(N)=O)NC(=O)[C@H]([C@@H](C)O)NC(=O)[C@H](C(C)C)NC(=O)[C@H](CC(C)C)NC(=O)[C@H](CCN)NC(=O)[C@H]2CCCN2C(=O)[C@H](CCN)NC(=O)[C@H](C(C)C)NC(=O)[C@H](Cc2ccc(-c3ccccc3)cc2)NC1=O [Example 1416] ({CH2CO}-FYDWL[Bip]V[Dab][dP][Dab]LVTCA-NH2; thioether N-14)	6.62
CC(C)C[C@@H]1NC(=O)[C@H](CCCNC(=N)N)NC(=O)[C@H](Cc2ccccc2)N(C)C(=O)[C@H](C)N(C)C(=O)[C@H](CCCNC(=N)N)NC(=O)[C@H](Cc2ccc(-c3ccccc3)cc2)NC(=O)[C@H](C(C)C)NC(=O)[C@H](Cc2c[nH]c3ccccc23)NC(=O)[C@H](CC(=O)O)NC(=O)[C@H](Cc2ccc(O)cc2)NC(=O)[C@H](Cc2ccc(O)cc2)NC(=O)CSC[C@@H](C(=O)NCC(N)=O)NC(=O)[C@H](CO)NC(=O)[C@H](C(C)C)NC1=O [Example 1068] ({CH2CO}-YYDWV[Bip]R[NMeA][NMeF]RLVSCG-NH2; thioether N-14)	6.77

====

target: human PD-1 (Jurkat-PD-1 cells) / PE-labeled human PD-L1-Ig (Homo sapiens); construct: expressed in transfected cells; host or cells: Jurkat cell line over-expressing human PD-1; test: Jurkat-PD-1 Cell Binding High-Content Screening Assay (CBA); Jurkat hPD1-PDL1 assay; conditions: Jurkat cell line over-expressing human PD-1; PE-labeled PD-L1-Ig 20 nM final; compound incubated 2 hours at 37° C.; read-out: Jurkat HPD1-PDL1 IC50
Positions of bridges follow the written chain, without caps; N, C: chain ends. Non-standard residues stand in square brackets, D forms with d. Residues, ends and D or L forms follow the SMILES beside them. Bip = N[C@@H](Cc1ccc(-c2ccccc2)cc1)C(=O)O; NMeN = CN[C@@H](CC(N)=O)C(=O)O; NMeA = CN[C@@H](C)C(=O)O
reportedEndpoint: IC50

CC(C)C[C@@H]1NC(=O)[C@H](Cc2c[nH]c3ccccc23)NC(=O)[C@H](CC(=O)O)NC(=O)[C@H](Cc2ccc(O)cc2)NC(=O)[C@H](Cc2ccccc2)NC(=O)CSC[C@@H](C(=O)NCC(N)=O)NC(=O)[C@H](CO)NC(=O)[C@H](C(C)C)NC(=O)[C@H](CC(C)C)NC(=O)[C@H](CC(N)=O)NC(=O)[C@H](CC(N)=O)N(C)C(=O)[C@H](C)N(C)C(=O)[C@H](C(C)C)NC(=O)[C@H](Cc2ccc(-c3ccccc3)cc2)NC1=O [Example 1148] ({CH2CO}-FYDWL[Bip]V[NMeA][NMeN]NLVSCG-NH2; thioether N-14)	670 nM

====

target: human PD-1 (Jurkat-PD-1 cells) / PE-labeled human PD-L1-Ig (Homo sapiens); construct: expressed in transfected cells; host or cells: Jurkat cell line over-expressing human PD-1; assay: Jurkat-PD-1 Cell Binding High-Content Screening Assay (CBA); Jurkat hPD1-PDL1 assay; conditions: Jurkat cell line over-expressing human PD-1; PE-labeled PD-L1-Ig 20 nM final; compound incubated 2 hours at 37° C.; read-out: Jurkat HPD1-PDL1 IC50
pIC50: −log10 of the molar value. Positions of bridges follow the written chain, without caps; N, C: chain ends. Non-standard residues stand in square brackets, D forms with d. Residues, ends and D or L forms follow the SMILES beside them. Bip = N[C@@H](Cc1ccc(-c2ccccc2)cc1)C(=O)O; dTic = O=C(O)[C@H]1Cc2ccccc2CN1; NMeA = CN[C@@H](C)C(=O)O; Sar = CNCC(=O)O
Readings of pIC50 for the listed compounds
reportedEndpoint: pIC50

CC(C)C[C@@H]1NC(=O)[C@H](Cc2c[nH]c3ccccc23)NC(=O)[C@H](CC(=O)O)NC(=O)[C@H](Cc2ccc(O)cc2)NC(=O)[C@H](Cc2ccccc2)NC(=O)CSC[C@@H](C(=O)N[C@@H](C)C(N)=O)NC(=O)[C@H](CO)NC(=O)[C@H](C(C)C)NC(=O)[C@H](CC(C)C)NC(=O)[C@H](CC(N)=O)NC(=O)[C@H]2Cc3ccccc3CN2C(=O)[C@H](C)N(C)C(=O)[C@H](C(C)C)NC(=O)[C@H](Cc2ccc(-c3ccccc3)cc2)NC1=O [Example 1049] ({CH2CO}-FYDWL[Bip]V[NMeA][dTic]NLVSCA-NH2; thioether N-14)	7.05
CC(C)C[C@@H]1NC(=O)[C@H](Cc2c[nH]c3ccccc23)NC(=O)[C@H](CC(=O)O)NC(=O)[C@H](Cc2ccc(O)cc2)NC(=O)[C@H](Cc2ccccc2)NC(=O)CSC[C@@H](C(=O)N[C@@H](C)C(N)=O)NC(=O)[C@H](CCC(N)=O)NC(=O)[C@H](C(C)C)NC(=O)[C@H](CC(C)C)NC(=O)[C@H](CC(N)=O)NC(=O)CN(C)C(=O)[C@H](C)N(C)C(=O)[C@H](C(C)C)NC(=O)[C@H](Cc2ccc(-c3ccccc3)cc2)NC1=O [Example 1136] ({CH2CO}-FYDWL[Bip]V[NMeA][Sar]NLVQCA-NH2; thioether N-14)	6.25

====

target: human PD-1 (Jurkat-PD-1 cells) / PE-labeled human PD-L1-Ig (Homo sapiens); construct: expressed in transfected cells; host or cells: Jurkat cell line over-expressing human PD-1; assay: Jurkat-PD-1 Cell Binding High-Content Screening Assay (CBA); Jurkat hPD1-PDL1 assay; details: Jurkat cell line over-expressing human PD-1; PE-labeled PD-L1-Ig 20 nM final; compound incubated 2 hours at 37° C.; read-out: Jurkat HPD1-PDL1 IC50
pIC50: −log10 of the molar value. Positions of bridges follow the written chain, without caps; N, C: chain ends. Non-standard residues stand in square brackets, D forms with d. Residues, ends and D or L forms follow the SMILES beside them. Bip = N[C@@H](Cc1ccc(-c2ccccc2)cc1)C(=O)O; hTyr = N[C@@H](CCc1ccc(O)cc1)C(=O)O; NMeA = CN[C@@H](C)C(=O)O; Sar = CNCC(=O)O
reportedEndpoint: pIC50

CC(C)C[C@@H]1NC(=O)[C@H](Cc2c[nH]c3ccccc23)NC(=O)[C@H](CC(=O)O)NC(=O)[C@H](CCc2ccc(O)cc2)NC(=O)[C@H](Cc2ccccc2)NC(=O)CSC[C@@H](C(=O)N[C@@H](C)C(N)=O)NC(=O)[C@H](CO)NC(=O)[C@H](C(C)C)NC(=O)[C@H](CC(C)C)NC(=O)[C@H](CC(N)=O)NC(=O)CN(C)C(=O)[C@H](C)N(C)C(=O)[C@H](C(C)C)NC(=O)[C@H](Cc2ccc(-c3ccccc3)cc2)NC1=O [Example 1086] ({CH2CO}-F[hTyr]DWL[Bip]V[NMeA][Sar]NLVSCA-NH2; thioether N-14)	6.60

====

Readings of pIC50 for the listed compounds
Target: human PD-1 (Jurkat-PD-1 cells) / PE-labeled human PD-L1-Ig (Homo sapiens, UniProt Q15116)
Construct: expressed in transfected cells; host or cells: Jurkat cell line over-expressing human PD-1
Experiment: Jurkat-PD-1 Cell Binding High-Content Screening Assay (CBA); Jurkat hPD1-PDL1 assay
Conditions: Jurkat cell line over-expressing human PD-1; PE-labeled PD-L1-Ig 20 nM final; compound incubated 2 hours at 37° C.; read-out: Jurkat HPD1-PDL1 IC50
Excerpt: The ability of the compounds of formula (I) to bind to PD-1 was investigated using a Jurkat-PD-1 Cell Binding High-Content Screening Assay. Jurkat-PD-1 Cell Binding High-Content Screening Assay (CBA) Phycoerythrin (PE) was covalently linked to the Ig epitope tag of human PD-L1-Ig and fluorescently-labeled PD-L1-Ig was used for binding studies with a Jurkat cell line over-expressing human PD-1 (Jurkat-PD-1). […]
pIC50: −log10 of the molar value. Positions of bridges follow the written chain, without caps; N, C: chain ends. Non-standard residues stand in square brackets, D forms with d. Residues, ends and D or L forms follow the SMILES beside them. Bip = N[C@@H](Cc1ccc(-c2ccccc2)cc1)C(=O)O; NMeF = CN[C@@H](Cc1ccccc1)C(=O)O; NMeA = CN[C@@H](C)C(=O)O; Orn = NCCC[C@H](N)C(=O)O; Dab = NCC[C@H](N)C(=O)O; Sar = CNCC(=O)O
reportedEndpoint: pIC50

CC(C)C[C@@H]1NC(=O)[C@H](Cc2c[nH]c3ccccc23)NC(=O)[C@H](CC(=O)O)NC(=O)[C@H](Cc2ccc(O)cc2)NC(=O)[C@H](Cc2ccccc2)NC(=O)CSC[C@@H](C(=O)NCC(N)=O)NC(=O)[C@H]([C@@H](C)O)NC(=O)[C@H](C(C)C)NC(=O)[C@H](CC(C)C)NC(=O)[C@H](CC(N)=O)NC(=O)[C@H]2CCCN2C(=O)[C@H](CCN)NC(=O)[C@H](C(C)C)NC(=O)[C@H](Cc2ccc(-c3ccccc3)cc2)NC1=O [Example 1411] ({CH2CO}-FYDWL[Bip]V[Dab][dP]NLVTCG-NH2; thioether N-14)	6.36
CC(C)C[C@@H]1NC(=O)CSC[C@@H](C(=O)NCC(N)=O)NC(=O)[C@H](CO)NC(=O)[C@H](C(C)C)NC(=O)[C@H](CC(C)C)NC(=O)[C@H](CCCNC(=N)N)NC(=O)[C@H](Cc2ccccc2)N(C)C(=O)[C@H](C)N(C)C(=O)[C@H](CCCN)NC(=O)[C@H](Cc2ccc(-c3ccccc3)cc2)NC(=O)[C@H](C(C)C)NC(=O)[C@H](Cc2c[nH]c3ccccc23)NC(=O)[C@H](CC(=O)O)NC(=O)[C@H](Cc2ccc(O)cc2)NC1=O [Example 1290] ({CH2CO}-LYDWV[Bip][Orn][NMeA][NMeF]RLVSCG-NH2; thioether N-14)	6.85
CC(C)C[C@@H]1NC(=O)[C@H](C(C)C)NC(=O)[C@H](Cc2ccccc2)N(C)C(=O)[C@H](C)N(C)C(=O)[C@H](CCCNC(=N)N)NC(=O)[C@H](Cc2ccc(-c3ccccc3)cc2)NC(=O)[C@H](C(C)C)NC(=O)[C@H](Cc2c[nH]c3ccccc23)NC(=O)[C@H](CC(=O)O)NC(=O)[C@H](Cc2ccc(O)cc2)NC(=O)[C@H](Cc2ccccc2)NC(=O)CSC[C@@H](C(=O)NCC(N)=O)NC(=O)[C@H](CO)NC(=O)[C@H](C(C)C)NC1=O [Example 1239] ({CH2CO}-FYDWV[Bip]R[NMeA][NMeF]VLVSCG-NH2; thioether N-14)	6.96
CC[C@H](C)[C@@H]1NC(=O)[C@H](Cc2ccc(-c3ccccc3)cc2)NC(=O)[C@H](CC(C)C)NC(=O)[C@H](Cc2c[nH]c3ccccc23)NC(=O)[C@H](CC(=O)O)NC(=O)[C@H](Cc2ccc(O)cc2)NC(=O)[C@H](Cc2ccccc2)NC(=O)CSC[C@@H](C(=O)NCC(N)=O)NC(=O)[C@H](CO)NC(=O)[C@H](C(C)C)NC(=O)[C@H](CC(C)C)NC(=O)[C@H](CC(N)=O)NC(=O)CN(C)C(=O)[C@H](C)N(C)C1=O [Example 1133] ({CH2CO}-FYDWL[Bip]I[NMeA][Sar]NLVSCG-NH2; thioether N-14)	6.27
